- system: L-lactate dehydrogenase (Plasmodium falciparum (isolate CDC / Honduras)) (UniProt Q27743)
- Sequence (Q27743 whole entry, looked up): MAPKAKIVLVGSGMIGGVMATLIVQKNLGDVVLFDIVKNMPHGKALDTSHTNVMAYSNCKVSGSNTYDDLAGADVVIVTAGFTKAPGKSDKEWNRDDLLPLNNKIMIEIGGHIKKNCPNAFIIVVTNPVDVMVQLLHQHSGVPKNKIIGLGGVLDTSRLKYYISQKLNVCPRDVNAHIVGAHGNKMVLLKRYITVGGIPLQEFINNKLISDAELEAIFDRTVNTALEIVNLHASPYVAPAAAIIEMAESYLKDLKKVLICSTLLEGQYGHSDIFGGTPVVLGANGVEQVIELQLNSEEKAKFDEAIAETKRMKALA
- experiment.description: PfLDH activity inhibition – cell lysate, 3D7 strain, counter-screen for P. falciparum growth inhibition project (AID 2304);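 also: 0% = vehicle and 100% = reference inhibitor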
- recorded.conditions: P. falciparum 3D7 crude extract, LDH APAD/NBT absorbance; at 2 µM; hits give high values
For each of the compounds below, state its inhibition.
Numbers only, in %.

| compound | inhibition [%] |
| --- | --- |
| COc1ccc(CNCc2ccsc2)cc1-c1ccc(S(=O)(=O)NCCN2CCCC2)s1 | -7 |
| FC(F)(F)c1ccc2nc(-c3ccc(-c4ccc(CNCC5CCCO5)cc4)s3)[nH]c2c1 (stereo unspecified) | -6 |
| COc1ccc2nc3cc(Cl)ccc3c(Nc3ccc(Sc4ccc(Nc5c6ccc(Cl)cc6nc6ccc(OC)cc56)cc4)cc3)c2c1 | -4 |
| CCn1c(CN2CCN(Cc3ccccc3)CC2)nc2cc(NC(=O)c3cccs3)ccc21 | 2 |
| Fc1c(CNCC2CCN(CC3CCCCC3)CC2)cccc1C(F)(F)F | 3 |
| COc1ccccc1C(=O)Nc1ccc(Nc2nc(C)cc(N3CCOCC3)n2)cc1 | -3 |

Please give inhibition for each item listed below.
1. Cc1c(CN2CCC(N3CCC(C(=O)NC4CC4)CC3)CC2)[nH]c2c(Cl)cccc12
2. CCOc1ccc2nc(N(CCCn3ccnc3)C(=O)C=Cc3cccs3)sc2c1

Return:
1
-1

Below are 4 compounds. Give each one its inhibition.
1. CN1CCC(Oc2cc(NC(=O)Nc3ccc(-c4ccncc4)c(C(F)(F)F)c3)ccc2Cl)CC1
2. FC(F)(F)c1cc(C(F)(F)F)c2cc(CNCCCNc3nc4ccccc4[nH]3)[nH]c2c1
3. CC12CCC(=O)N1C(C(=O)Nc1cccc(C(=O)Nc3cccc(C(F)(F)F)c3)c1)CS2 (stereo unspecified)
4. CCN(CC)CC(O)CNc1c2ccc([N+](=O)[O-])cc2nc2cc(OC)c(OC)cc12 (stereo unspecified)

Return:
-1
0
-3
-4

Provide the reported inhibition of each entry below, same order.
1. Cc1cc(O)c(CN2CCN(Cc3cccs3)CC2)cc1C(C)C
2. O=C(Nc1ccnc2ccccc12)NC1CCN(CCc2ccccc2)CC1
3. CC(C)(C)COc1ccc2c(N)n[nH]c2c1
4. O=C(NC1CCC(CCN2CCc3ccc(-c4cnccn4)cc3CC2)CC1)c1cccc(-n2cccn2)c1 (stereo unspecified)

Return:
1. -2
2. -3
3. 4
4. -3

###

Task for the reader: assign each of the following compounds its reported growth inhibition.
- experiment.description: antimalarial activity against Dd2 strain (AID 2302);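 also: 0% = DMSO untreated growth and 100% = chloroquine plus artemisinin killed control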
- recorded.conditions: P. falciparum Dd2 in RBCs, LDH growth readout, 72 h; at 2 µM; hits give high values
One number for each entry, in %.

Worked examples follow.
| compound | growth inhibition, % |
| --- | --- |
| OCCOCn1cnc2cnc(N[C@H]3OC[C@H](O)[C@@H](O)[C@@H]3O)nc21 | -2 |
| COc1cc(NC(=O)C(c2ccc(Cl)cc2)C(C)C)cc(OC)c1OC (centres undefined) | 100 |
| CN1CCCC1CCCOC(=O)c1ccc(N)cc1 (centres undefined) | 2 |
| COc1ccccc1C1CCN(C2CCC(NC(=O)/C=C/c3cc(F)cc(C(F)(F)F)c3)CC2)CC1 (centres undefined) | 57 |
| Cc1cccc2[nH]c(-c3ccc(-c4ccc(CN5CCCC(O)C5)cc4)cc3)nc12 (centres undefined) | 54 |
| COc1ccccc1N1CCN(Cc2c(NC(C)=O)sc(C)c2C)CC1 | 80 |

Provide growth inhibition values for the following items, in order.
1. CCNc1cc(-c2cccc(OC)c2)nc(Nc2ccc(F)cc2)n1
2. CNCCNC(=O)C1Cc2c([nH]c3c(C)cccc23)C(c2ccc(Cl)c(Cl)c2)N1 (centres undefined)
3. NC(=O)c1ccccc1OCC(=O)Nc1ccc(-c2cccc(-c3nc4ccc(C(F)(F)F)cc4[nH]3)c2)cc1
4. COc1cc(F)c2ncc(Cl)c([C@@H](O)CN3CCC(NCc4cc5c(cn4)OCCO5)CC3)c2c1
5. O=C(CCCC(=O)Nc1ccc(C2=NCCN2)cc1)Nc1ccc(C2=NCCN2)cc1

Return:
1. 23
2. 60
3. 11
4. 100
5. 81

Please give growth inhibition, item by item, for the list that follows.
1. CCOCCCNc1ncc(-c2ccsc2)c(-c2nc(C)cs2)n1
2. O=C(Nc1ccc(I)cc1)Nc1ccc(Cn2ncc(N3CCCNCC3)c(Cl)c2=O)cc1
3. CC(C)c1nc(N2CCN(C(=S)NCc3ccccc3)CC2)c(C#N)c2c1COC(C)(C)C2

Return:
1: 83; 2: 30; 3: 100

###

- experiment.description: inhibition of 3D7 malaria parasite growth – strain 3D7 (AID 2306);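 also: 0% = DMSO wells and 100% = chloroquine plus artemisinin control wells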
- recorded.conditions: P. falciparum 3D7 erythrocytic growth, LDH absorbance, 72 h; at 2 µM; hits give high values
endpoint.name: growth inhibition (%)
Numbers only, in %.

Reference set (8 entries):
| compound | endpoint.name | readout.value |
| --- | --- | --- |
| CC(C)(CNCc1cc(Cl)cc(Cl)c1)c1nc(-c2ccc(Cl)c(O)c2)c(-c2ccnc(N)n2)[nH]1 | growth inhibition | 92 |
| COc1ccc(N2C(N)=NC(N)=NC2(C)C)cc1 | growth inhibition | 94 |
| O=C(/C=C/c1ccc(Cl)c(Cl)c1)NCCCCCN1CCC(CCNC(=O)Cc2ccc(Cl)cc2)CC1 | growth inhibition | 83 |
| CC(C)Cc1ccc(N2CCN(CCCCNC(=O)c3ccc(NC(=O)c4ccc(Cl)c(Cl)c4)cc3)CC2)cc1 | growth inhibition | 94 |
| COc1c(C2CCN(CCCCNC(=O)c3ccc(-c4ccc(Cl)cc4)cc3)CC2)ccc2c1C(C)(C)CCC2(C)C | growth inhibition | 95 |
| CS(=O)(=O)CCNCc1nc(-c2ccc3ncnc(Nc4ccc(OCc5ccccc5)c(Cl)c4)c3c2)cs1 | growth inhibition | 99 |
| O=C(Nc1cccc(F)c1)N[C@H]1CCN(CCCCCNC(=O)[C@@H]2C[C@H]2c2ccc(Cl)c(Cl)c2)C1 | growth inhibition | 90 |
| Cc1cc2ccccc2c(CON2C(N)=NC(N)=NC2(C)C)c1C | growth inhibition | 93 |

Field: growth inhibition. Fill in for each record below.
1. O=C(c1cc(-c2cccs2)[nH]n1)N1CCN(S(=O)(=O)c2ccc(Cl)cc2)CC1
2. Cc1cc(N[C@@H](Cc2ccccc2)C(=O)NC2CCCC2)nc(NCCOc2ccccc2)n1
3. O=C(Nc1ccc(Cl)cc1)c1cccc(S(=O)(=O)NC2CCN(CC3CCCCC3)CC2)c1
4. COc1cccc(OCC2CCCN(CCCCNC(=O)c3ccc(NC(=O)c4ccc(Cl)cc4)cc3)C2)c1 (stereo not given)
5. S=C(NN=Cc1ccccn1)Nc1ccc(Cl)c(Cl)c1

Return:
1. 96
2. 98
3. 92
4. 100
5. 98

Hi there! I need growth inhibition for each item below, if you can.
1. CC1=C(C(=O)OC(C)C)C(c2ccccc2Cl)C2=C(CC(c3ccccc3)CC2=O)N1 (stereo not given)
2. CCOC(=O)c1cc(=O)c2ccc(OCC#N)cc2o1
3. O=C(Nc1ccc(-c2nc3ccccc3[nH]2)cc1)c1cccc(S(=O)(=O)N2CCOCC2)c1
4. c1ccc(Oc2ccc(Nc3nncc4ccccc34)cc2)cc1
5. CCCc1cc(Cc2cnc(N)nc2N)ccc1OCCCCCC(=O)O
6. CN(CC(=O)Nc1cc(C(F)(F)F)ccc1-n1cncn1)Cc1ccc2ccccc2c1
7. O=C(NCCc1ccccc1)N(Cc1ccccc1-c1ccc(CNC2CCCC2)cc1)C1CCN(Cc2ccccc2)CC1
8. CCN(CC)CCN(Cc1ccc(-c2ccc(C(F)(F)F)cc2)nc1)C(=O)Cn1c(SCc2ccc(F)cc2)nc(=O)c2sccc21

Return:
93
88
89
86
97
98
96
96

###

- system: L-lactate dehydrogenase (Plasmodium falciparum (isolate CDC / Honduras)) (UniProt Q27743)
- experiment.description: PfLDH activity inhibition – cell lysate, 3D7 strain, counter-screen for P. falciparum growth inhibition project (AID 2304);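 also: 0% = vehicle and 100% = reference inhibitor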
- recorded.conditions: P. falciparum 3D7 crude extract, LDH APAD/NBT absorbance; at 2 µM; hits give high values
endpoint.name: inhibition (%)
Numbers only, in %.

# example entries with known answers
| compound | inhibition / % |
| --- | --- |
| Cc1cccc2[nH]c(-c3cccc(-c4ccc(NC(=O)C(C)(C)c5ccccn5)cc4)c3)nc12 | -1 |
| CNC(=O)c1cncc(/C=C/c2ccccc2S(N)(=O)=O)c1 | -1 |
| O=C1CCCN1CCCNCc1cccc(-c2ccc(-c3nc4ccc(C(F)(F)F)cc4[nH]3)s2)c1 | -4 |
| Clc1ncccc1-c1nc(NCCC(c2ccccc2)c2ccccc2)no1 | 3 |
| COCCn1c(-c2cccc(Cl)c2)nn(-c2ccc([N+](=O)[O-])cc2C#N)c1=S | 0 |
| CCOC(=O)C1=C(C)N=c2sc(=Cc3ccccc3O)c(=O)n2C1c1ccc(OC)c2ccccc12 (stereo not given) | 1 |

For each of the compounds below, note its inhibition.
1. CCCCC(=O)NC(c1cccs1)c1cc(Cl)c2cccnc2c1O (stereo not given)
2. CC(=O)N(C)c1cccc(C(=O)Nc2cccc(-c3cccc(-c4nc5c(C)cccc5[nH]4)c3)c2)c1
3. CNC(=S)NCc1cnc2ccccn12
4. N=C(N)c1ccc(-c2cc(-c3cccc(C(=N)N)c3)on2)cc1

Return:
[1, -9, 3, 2]
